# system.name: hemoglobin (20% hct blood) (Homo sapiens, UniProt P68871+P69905)
# Construct: Normal whole blood was collected from adult healthy donors; from tissue; host or cells: normal human whole blood (red blood cells), adult healthy donors
# Sequence (P69905 2-142 limits assumed): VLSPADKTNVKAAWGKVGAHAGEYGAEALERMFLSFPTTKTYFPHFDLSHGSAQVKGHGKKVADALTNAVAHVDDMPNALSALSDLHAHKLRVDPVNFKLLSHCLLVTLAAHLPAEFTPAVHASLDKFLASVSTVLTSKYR
# Sequence (P68871 2-147 limits assumed): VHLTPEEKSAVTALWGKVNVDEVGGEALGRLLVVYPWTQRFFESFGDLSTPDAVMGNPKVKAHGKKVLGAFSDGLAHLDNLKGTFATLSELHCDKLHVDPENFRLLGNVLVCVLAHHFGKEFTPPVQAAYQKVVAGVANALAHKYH
# protocol.summary: Dose-dependent whole blood OEC studies
# Assay type: cell-based
# condition.notes: 0.5 mM compound, 37° C., 1 hr
measure: delta p50 0.5 mM (%)

I. CC(C)n1nccc1-c1nccc(F)c1COc1cccc(O)c1C=O
II. [2H]C([2H])(Oc1cc(F)cc(O)c1C=O)c1cncnc1-c1ccnn1C(C)C
III. [2H]C([2H])([2H])C(n1ncc(F)c1-c1ncncc1COc1cc(F)cc(O)c1C=O)C([2H])([2H])[2H]
[in] Sort the entries above by delta p50 0.5 mM, smallest first. In your reply, arrange the labels in the requested order.
[out] I, II, III
(I: −48.4%, II: −29.30%, III: −10.00%)

----------
# system.name: hemoglobin (normal human adult blood) (Homo sapiens, UniProt P68871+P69905)
# Construct: Normal whole blood was collected from adult healthy donors; from tissue; host or cells: normal human whole blood (red blood cells), adult healthy donors
# Sequence (P69905 2-142 limits assumed): as the sequence (P69905 2-142 limits assumed) above
# Sequence (P68871 2-147 limits assumed): as the sequence (P68871 2-147 limits assumed) above
# protocol.summary: Time-dependent oxygen equilibrium curve (OEC) studies in normal whole blood
# Assay type: cell-based
# condition.notes: 2 mM compound, 2% DMSO, normal human blood 20% hematocrit, 37° C., 1 h
measure: delta p50 (%)

* CC(C)n1nccc1-c1ncccc1COc1ccc2c(c1C=O)OCO2 | −66
* CC(C)n1nccc1-c1ncccc1COc1ccc2ncoc2c1C=O | −81
* CC(C)n1nccc1-c1ncccc1COc1ccc2c(c1C=O)CCO2 | −78
* CC(C)n1nccc1-c1ncccc1COc1ccc2c(c1C=O)OCCO2 | −59
* CC(C)n1nccc1-c1ncccc1COc1ccc2ocnc2c1C=O | −63
* CC(C)n1nccc1-c1nccc2c1[C@@H](Oc1cccc(O)c1C=O)CO2 [Example 62a] | −63
* CC(C)n1nccc1-c1ncccc1COc1cc2c(cc1C=O)OCC2 | −62
* [2H]C([2H])([2H])C(n1nccc1-c1ncccc1COc1cccc(O)c1C=O)C([2H])([2H])[2H] | −85
* CC(C)n1nccc1-c1ncccc1COc1ccc2sccc2c1C=O | −74

----------
# system.name: hemoglobin (20% hct blood) (Homo sapiens, UniProt P68871+P69905)
# Construct: Normal whole blood was collected from adult healthy donors; from tissue; host or cells: normal human whole blood (red blood cells), adult healthy donors
# protocol.summary: Dose-dependent whole blood OEC studies
# Assay type: cell-based
# condition.notes: 0.2 mM compound, 37° C., 1 hr
measure: delta p50 0.2 mM (%)

- [2H]C([2H])(Oc1cccc(O)c1C=O)c1c(F)ccnc1-c1ccnn1C(C)C: −13.0
- [2H]C([2H])(Oc1cccc(O)c1C=O)c1ncccc1-c1ccnn1C(C)C: −12.80
- [2H]C([2H])(Oc1cccc(O)c1C=O)c1cccnc1-n1ccnc1C(C)C [Example 29e]: −24.9
- CC(C)n1nccc1-c1ncccc1COc1ccc2ncncc2c1C=O: −8.20
- CC(C)n1nccc1-c1ncncc1COc1ccc2ncsc2c1C=O: −20.50

a. CC(C)n1nccc1-c1ncccc1COc1ccc2snnc2c1C=O
b. [2H]C([2H])([2H])C(n1ncc(F)c1-c1ncncc1COc1cc(F)cc(O)c1C=O)C([2H])([2H])[2H]
c. CC(C)n1nccc1-c1ncccc1COc1ccc2nnsc2c1C=O
[in] In this exercise, place the 3 molecules in ascending sequence of their recorded delta p50 0.2 mM. In your reply, arrange the labels in the requested order.
[out] a, b, c
(a: −12%, b: −6.50%, c: −2.80%)

1. Cc1nc(-c2ccnn2C(C)C)c(COc2cccc(O)c2C=O)s1
2. [2H]C([2H])([2H])C(n1nccc1-c1ncncc1COc1cccc(O)c1C=O)C([2H])([2H])[2H]
[in] Param metric = delta p50 0.2 mM; output whichever of 1 , 2 has the minimum value. Identify your selection by its label.
[out] 2

1. CC(C)n1nccc1-c1ncccc1COc1cccc(O)c1C=O [GBT440, reference compound]
2. [2H]C([2H])([2H])C(n1nccc1-c1ncccc1COc1cc(F)cc(O)c1C=O)C([2H])([2H])[2H]
3. CC(C)n1nccc1-c1ncoc1COc1cccc(O)c1C=O
[in] In this exercise, place the 3 molecules in ascending sequence of their recorded delta p50 0.2 mM. In your reply, arrange the labels in the requested order.
[out] 1, 2, 3
(1: −14.2%, 2: −9.80%, 3: −6.80%)

1. CC(C)n1nccc1-c1ncncc1COc1ccc2ncoc2c1C=O
2. CC(C)n1nccc1-c1ocnc1COc1cccc(O)c1C=O
[in] Param metric = delta p50 0.2 mM; output whichever of 1 , 2 has the minimum value. Identify your selection by its label.
[out] 1

A. [2H]C([2H])(Oc1cc(F)cc(O)c1C=O)c1cncnc1-c1ccnn1C(C)C
B. CC(C)n1nccc1-c1ncncc1COc1ccc2cccnc2c1C=O [Example 56]
C. CC(C)n1nccc1-c1ncccc1COc1ccc2ncsc2c1C=O
[in] Order the 3 molecules from highest to lowest delta p50 0.2 mM. In your reply, arrange the labels in the requested order.
[out] B, A, C

I. [2H]C([2H])([2H])C(n1nccc1-c1ncccc1COc1ccc2ncoc2c1C=O)C([2H])([2H])[2H]
II. CC(C)n1ncc(F)c1-c1ncncc1COc1cccc(O)c1C=O
[in] Param metric = delta p50 0.2 mM; output whichever of I , II has the minimum value. Identify your selection by its label.
[out] I
(I: −12.70%, II: −4.90%)

I. [2H]C([2H])(Oc1cccc(O)c1C=O)c1cccnc1-c1c(F)cnn1C(C)C
II. [2H]C([2H])(Oc1cc(F)cc(O)c1C=O)c1cncnc1-n1ccnc1C(C)C
[in] Param metric = delta p50 0.2 mM; output whichever of I , II has the minimum value. Identify your selection by its label.
[out] I

----------
# system.name: hemoglobin (20% hct blood) (Homo sapiens, UniProt P68871+P69905)
# Construct: Normal whole blood was collected from adult healthy donors; from tissue; host or cells: normal human whole blood (red blood cells), adult healthy donors
# protocol.summary: Dose-dependent whole blood OEC studies
# Format: cell-based
# condition.notes: 0.2 mM compound, 37° C., 1 hr
measure: delta p50 0.2 mM (%)

Please review the following examples before continuing.
- [2H]C([2H])(Oc1cccc(O)c1C=O)c1cncnc1-n1ccnc1C(C)C [Example 42]: −10.20
- [2H]C([2H])(Oc1cccc(O)c1C=O)c1cccnc1-n1ccnc1C1CC1 [Example 45]: −10
- [2H]C([2H])(Oc1ccc(F)c(O)c1C=O)c1cncnc1-c1ccnn1C(C)C [Example 40]: −6
- [2H]C([2H])([2H])C(n1nccc1-c1ncncc1COc1cc(F)cc(O)c1C=O)C([2H])([2H])[2H] [Example 36]: −9.30
- CC(C)n1nccc1-c1c(COc2cccc(O)c2C=O)ncn1C [Example 63]: −7.00

P. CC(C)n1nccc1-c1ncccc1COc1ccc2scnc2c1C=O [Example 16]
Q. CC(C)n1nccc1-c1ncncc1COc1ccc2cccnc2c1C=O [Example 55]
[in] Among P and Q , which shows a numerically higher delta p50 0.2 mM result? Identify your selection by its label.
[out] Q

A. CC(C)n1nccc1-c1cccnc1COc1ccc2ncoc2c1C=O [Example 58]
B. Cc1nc(COc2cccc(O)c2C=O)c(-c2ccnn2C(C)C)o1 [Example 68]
[in] Among A and B , which shows a numerically higher delta p50 0.2 mM result? Identify your selection by its label.
[out] B

I. [2H]C([2H])([2H])C(n1ncc(F)c1-c1ncncc1COc1cccc(O)c1C=O)C([2H])([2H])[2H] [Example 35]
II. [2H]C([2H])(Oc1cccc(O)c1C=O)c1cncnc1-c1ccnn1C(C)C [Example 38]
[in] Param metric = delta p50 0.2 mM; output whichever of I , II has the minimum value. Identify your selection by its label.
[out] II
(II: −15.20%, I: −10.30%)

----------
Form: system (CYP2C9 (Homo sapiens)), quantity (IC50), values below.
measure: IC50 (µM)

Please review the following examples before continuing.
* CC(C)n1nccc1-c1ncccc1COc1cccc(O)c1C=O [GBT440, reference compound] | 28.1
* [2H]C([2H])(Oc1cccc(O)c1C=O)c1cncnc1-c1ccnn1C(C)C [Example 38] | 10.6

A. [2H]C([2H])(Oc1cc(F)cc(O)c1C=O)c1cccnc1-c1ccnn1C(C)C [Example 27b]
B. [2H]C([2H])(Oc1cccc(O)c1C=O)c1cccnc1-n1ccnc1C(C)C [Example 29e]
[in] Among A and B , which shows a numerically higher IC50 result? Identify your selection by its label.
[out] B
(B: 36.5 µM, A: 11 µM)

----------
# protocol.summary: Microsome stability evaluation in human liver microsomes
# Type: in vitro ADME
# condition.notes: read-out: Human microsome, t½
measure: half-life (min)

* CC(C)n1nccc1-c1ncccc1COc1cccc(O)c1C=O [GBT440, reference compound] | 24

I. [2H]C([2H])(Oc1cc(F)cc(O)c1C=O)c1cccnc1-c1ccnn1C(C)C [Example 27b]
II. [2H]C([2H])(Oc1cccc(O)c1C=O)c1cncnc1-c1ccnn1C(C)C [Example 38]
III. [2H]C([2H])(Oc1cccc(O)c1C=O)c1cccnc1-n1ccnc1C(C)C [Example 29e]
[in] Order the 3 molecules from highest to lowest half-life. In your reply, arrange the labels in the requested order.
[out] II, I, III
